Tested on: K-562 leukemia
Test: NCI-60 one-dose screen, 48 h
Conditions: 10 µM unless noted
This is part of a sample that, as a whole, favours compounds with a hit. Of some 83,000 tested, about 20% had one in any assay. Activity calls are given as the source filed them. The calls were made as follows: active = growth percent below 10; inactive = the rest.
Reply using exactly one outcome from Yes = active, No = inactive

Cc1cc(Cl)ccc1NC(=O)Nc1ccc(-c2ccc3c(c2)NC(=O)/C3=C\c2ccc[nH]2)cc1
No

Status in this test for CC1=C(C(=O)OCc2ccccc2)C(c2ccc(N(C)C)cc2)n2c(nc3ccccc32)N1 (stereo not given) ?
No

Try COc1ccc2[nH]c(=O)c(CSc3ccccc3Nc3nccc(-c4ccc5c(c4)OCO5)n3)cc2c1 next.
No

Try O=C1CCC(N2C(=O)c3cccc(NCCOCCOCCOCCC(=O)NCCCC(=O)NC(c4ccc5c(c4)OCO5)c4cc(Cl)c5cccnc5c4O)c3C2=O)C(=O)C1 (stereo not given) next.
No

Try COc1ccc2c(c1)N=c1c-2cc2c(O)[nH]c(=S)n2c1=O next.
No

Try COc1ccc(-c2cc(-c3ccccc3)c(C#N)c(=O)[nH]2)cc1S(N)(=O)=O next.
No

Try Cc1ccc(S(=O)(=O)Nc2ccc(-c3ccc4c(c3)NC(=O)/C4=C\c3ccc[nH]3)cc2)cc1 next.
No

Try C=CCSc1nnc(-c2c(C)nc3sccn23)o1 next.
No
